All figures here come from ChEMBL document CHEMBL4350999.

Assay: Stability of 177Lu labelled compound in human serum assessed as parent compound remaining at 37 degC after 3 hrs by RP-HPLC analysis
Type: ADME, cell-free
Conditions: read-out: Stability
remaining at 3 h: recorded values
Give your result in % as a bare value.

Cc1cc(O)cc(C)c1C[C@H](NC(=O)[C@@H]1CCCN1C(=O)[C@H](CCCNC(=N)N)NC(=O)[C@H](CCCNC(=N)N)N(C)C(=O)[C@@H]1CCCN1C(=O)[C@H](CCCCN)NC(=O)[C@@H](CO)NC(=O)[C@@H](CO)NC(=O)[C@@H](CO)NC(=O)[C@H](Cc1cn(CCNC(=O)[C@H](CCCNC(=N)N)NC(=O)[C@H](CC(C)C)NC(=O)C2OC2C(=O)O)nn1)NC(=O)CN1CCN(CC(=O)O)CCN(CC(=O)O)CCN(CC(=O)O)CC1)C(=O)N[C@H](C(=O)N[C@@H](CC(C)C)C(=O)O)C(C)(C)C (some centres not stated) ... 65.6

**Q:** Give remaining at 3 h for the following compound: `Cc1cc(O)cc(C)c1C[C@H](NC(=O)[C@@H]1CCCN1C(=O)[C@H](CCCNC(=N)N)NC(=O)[C@H](CCCNC(=N)N)N(C)C(=O)[C@@H]1CCCN1C(=O)[C@H](CCCCN)NC(=O)[C@@H](CO)NC(=O)[C@@H](CO)NC(=O)[C@@H](CO)NC(=O)[C@H](Cc1cn(CCNC(=O)[C@H](CCCNC(=N)N)NC(=O)[C@H](CC(C)C)NC(=O)CCC(=O)O)nn1)NC(=O)CN1CCN(CC(=O)O)CCN(CC(=O)O)CCN(CC(=O)O)CC1)C(=O)N[C@H](C(=O)N[C@@H](CC(C)C)C(=O)O)C(C)(C)C`
**A:** 74.3
